The following compounds are shown together with reported z-score values.
- assayMethodText: FRG1 expression reporter modulators in myotubes – cell-based, C2C12 myotubes, firefly/Renilla luciferase, luminescence, FRG1 inhibition for FSHD, primary screen (AID 1084)
- conditionDetails: FRG1 promoter luciferase, higher = more signal, called active from +8 up or from −8 down

compound: COC(=O)C(CC#Cc1ccc2c(c1)[C@]1(C(=O)N2)[C@H](c2ccc(OCCO)cc2)N2[C@H](c3ccccc3)[C@H](c3ccccc3)OC(=O)[C@H]2[C@@H]1C(=O)O)C(=O)OC
z-score: -0.434
//
compound: O=C1OCC=C[C@H]2OC34C=CCN(CCN5CCOCC5)C(=O)[C@H]3N(CCCCCO)C(=O)[C@@H]4[C@@H]12 (stereo partly drawn)
z-score: 0.401
//
compound: C=CCNC(=O)[C@H]1[C@@H]2C(=O)O[C@@H](c3ccccc3)[C@@H](c3ccccc3)N2[C@@H](c2ccc(O)cc2)[C@]12C(=O)N(C(=O)OCCOC)c1ccc(C#CC3(O)CCCCCC3)cc12
z-score: 0.168
//
compound: NC(=O)NCC#Cc1ccc2c(c1)[C@]1(C(=O)N2)[C@H](c2ccc(OCCO)cc2)N2[C@H](c3ccccc3)[C@H](c3ccccc3)OC(=O)[C@H]2[C@@H]1C(=O)N1CCN(c2ncccn2)CC1
z-score: 0.565
//
compound: COc1cccc(C[C@H]2C[C@@H](CO[Si](C(C)C)(C(C)C)C(C)C)N3C(=O)[C@]4(C(C)=O)O[C@]23[C@H]2C(=O)N(C)C(=O)[C@H]24)c1
z-score: 0.165
//
compound: C[N+](C)(C)CCCCCCNC(=O)[C@@H]1C[C@@H]2C(=O)NCC(=O)N2[C@@H]1c1ccc(O)cc1
z-score: 2.8
//
compound: CC(C)NC(=O)[C@@H]1c2ccccc2C(=O)N(Cc2cc(C(F)(F)F)cc(C(F)(F)F)c2)[C@H]1c1ccc(CO)cc1
z-score: 0.306
//
compound: CC(C)C[C@@H]1NC(=O)[C@@H]2C[C@H](C(=O)NCc3ccc(F)cc3)[C@H](c3ccc(O)cc3)N2C1=O
z-score: -0.331
//
compound: CCCCCCCCCCC(O)C1C=CC2C(=O)NC(=O)C2N1Nc1ccccn1 (stereo not drawn)
z-score: 1.06
//
compound: COCCOC(=O)N1C(=O)[C@@]2(c3ccccc31)[C@H](c1ccc(OCCO)cc1)N1[C@H](c3ccccc3)[C@H](c3ccccc3)OC(=O)[C@H]1[C@@H]2C(=O)NC[C@H](O)c1ccccc1
z-score: -1.51
//
compound: O=C1O[C@@H](c2ccccc2)[C@@H](c2ccccc2)N2[C@@H](c3ccc(O)cc3)[C@]3(C(=O)Nc4ccc(C#CC5=CCCCC5)cc43)[C@@H](C(=O)Nc3nc4ccccc4s3)[C@H]12
z-score: -0.453
//
compound: C[N+](C)(C)CCCC[C@@H]1NC(=O)[C@H]2C[C@@H](C(=O)NCCCCCCN)[C@@H](c3cccc(OCCO)c3)N2C1=O
z-score: 0.029
//
compound: COc1ccccc1CN1C(=O)c2ccccc2[C@](Cc2ccccc2I)(C(=O)NCCN2CCOCC2)[C@@H]1c1ccc(CO)cc1
z-score: -3.32

----------
- system: Streptavidin (Streptomyces avidinii) (UniProt P22629)
- Sequence (P22629 whole entry, looked up): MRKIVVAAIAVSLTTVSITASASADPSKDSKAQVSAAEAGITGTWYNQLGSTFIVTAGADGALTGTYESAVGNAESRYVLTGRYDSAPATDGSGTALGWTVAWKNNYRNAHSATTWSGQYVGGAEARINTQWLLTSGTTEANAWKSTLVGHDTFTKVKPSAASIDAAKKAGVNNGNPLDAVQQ
- assayMethodText: compounds binding control protein streptavidin – biophysical, small-molecule microarray, 635/667 nm fluorescence, artefact control for SMM compound annotation, primary screen (AID 1147);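 further: signal reflects streptavidin binding to arrayed compounds as a control protein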
- conditionDetails: higher = more signal
measuredEndpoint: composite z-score

smilesRepresentation: CCOC(=O)C1=CC[C@@H](c2ccccc2)N(S(=O)(=O)c2ccc(C)cc2)[C@H]1C=C(C)C
observed: 1.44

smilesRepresentation: CN(C)CCCNC(=O)[C@@]1(Cc2ccccc2I)c2ccccc2C(=O)N(Cc2ccccc2Cl)[C@H]1c1ccc(CO)cc1
observed: 0.592

smilesRepresentation: COc1ccc([Si](C)(C)[C@@H]2[C@@H](CCO)O[C@]3(C(=O)N(Cc4ccccc4)c4ccc(N5CCCCC5=O)cc43)[C@H]2C)cc1
observed: 0.583

smilesRepresentation: CCCC[C@H]1OB(O)C[C@H]2C1=C(COc1ccccc1)Cn1c(=O)n(-c3ccccc3)c(=O)n12
observed: 0.0395

smilesRepresentation: CC(C)CNC(=O)[C@@]1(C)c2ccccc2C(=O)N(Cc2ccccc2)[C@H]1c1ccc(CO)cc1
observed: -1.18

smilesRepresentation: CCOC(=O)C[C@H]1[C@H](OC(=O)Cc2ccc3c(c2)OCO3)[C@@H](NC(=O)c2ccccc2)c2cc(OCCCO)ccc2N1C(=O)c1ccccc1
observed: 0.243

smilesRepresentation: CCOC(=O)C[C@H]1[C@H](OC(=O)Cc2ccc3c(c2)OCO3)[C@@H](NC(=O)c2ccccc2)c2cc(OCCCO)ccc2N1C(=O)c1ccc2ccccc2n1
observed: 0.965

smilesRepresentation: COc1ccc(C#Cc2ccc3c(c2)[C@]2(C(=O)N3)[C@H](C(N)=O)[C@H]3C(=O)O[C@H](c4ccccc4)[C@H](c4ccccc4)N3[C@@H]2c2ccc(O)cc2)cc1
observed: 0.214

smilesRepresentation: CCOC(=O)C[C@H]1[C@H](OC(=O)c2ccc(C(=O)c3ccccc3)cc2)[C@@H](NC(=O)C2CCCCC2)c2cc(OCCCO)ccc2N1C(=O)Cc1ccc(OC)cc1
observed: 0.519

smilesRepresentation: Cc1ccc(F)cc1S(=O)(=O)N[C@@H]1CCN(C(=O)c2ccc(OC(C)C)cc2)C1
observed: 0.224

smilesRepresentation: NC(=O)[C@@H]1[C@H]2C(=O)O[C@H](c3ccccc3)[C@H](c3ccccc3)N2[C@H](c2ccccc2OCCO)[C@@]12C(=O)Nc1ccc(C#CCCO)cc12
observed: 0.837

smilesRepresentation: CCOC(=O)C1=CC[C@@H](c2cccc(Br)c2)N(S(=O)(=O)c2ccc(C)cc2)[C@H]1c1ccc([N+](=O)[O-])cc1
observed: 1.22

smilesRepresentation: COC(=O)[C@@]1(Cc2ccccc2N=[N+]=[N-])N=C(c2ccc(OCCCO)cc2)O[C@H]1c1ccccc1
observed: 0.248

smilesRepresentation: [N-]=[N+]=NCc1ccccc1C[C@@]1(C(=O)NCCN2CCOCC2)N=C(c2ccc(OCCCO)cc2)O[C@@H]1c1ccccc1CN=[N+]=[N-]
observed: 0.697

----------
- assayMethodText: ATP-based viability of Huh7 replicon cells – cell-based, CellTiter-Glo luminescence, basal, 48 h, cytotoxicity control for HCV replication inhibitor project, primary screen (AID 1143);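 further: Huh7 hepatoma cells carrying a hepatitis C replication reporter with no stimulus; test concentration not given here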
- conditionDetails: higher = more signal, called active from +8 up or from −8 down

compound: O=C1OCCC=C[C@H]2OC34C=CCN(Cn5nnc6ccccc65)C(=O)[C@H]3N(CCCCCO)C(=O)[C@@H]4C12 (some centres not stated)
z-score: 0.399
//
compound: O=C(O)[C@@]1(Cc2ccccc2)COC(c2ccc(OCCCO)cc2)=N1
z-score: 0.621
//
compound: O=C1N(CCS(=O)(=O)c2ccccc2)c2ccccc2[C@H]2OC(c3ccc(OCCCO)cc3)=N[C@@]12CCS(=O)(=O)c1ccccc1
z-score: -1.61
//
compound: C=C(/C(=C/C[C@@H](OC(C)=O)c1ccccc1OCCO)c1cnc2ccccc2c1)C(C)C
z-score: -1.35
//
compound: COc1ccc([Si](C)(C)[C@H]2[C@H](CCn3cc(CCO)nn3)O[C@@]3(C(=O)N(Cc4cccc(N5C(=O)c6cccc7cccc5c67)c4)c4ccccc43)[C@@H]2C)cc1
z-score: -7.3
//
compound: CN(C)CCCCCCNC(=O)[C@@H]1C[C@@H]2C(=O)NCC(=O)N2[C@@H]1c1ccc(O)cc1
z-score: -0.981
//
compound: NC(=O)NCC#Cc1ccc2c(c1)[C@]1(C(=O)N2)[C@H](c2ccc(OCCO)cc2)N2[C@H](c3ccccc3)[C@H](c3ccccc3)OC(=O)[C@H]2[C@@H]1C(=O)N1CCCCCCC1
z-score: 0.132

----------
- system: Epidermal growth factor receptor (Homo sapiens) (UniProt P00533)
- Sequence (P00533 whole entry, looked up): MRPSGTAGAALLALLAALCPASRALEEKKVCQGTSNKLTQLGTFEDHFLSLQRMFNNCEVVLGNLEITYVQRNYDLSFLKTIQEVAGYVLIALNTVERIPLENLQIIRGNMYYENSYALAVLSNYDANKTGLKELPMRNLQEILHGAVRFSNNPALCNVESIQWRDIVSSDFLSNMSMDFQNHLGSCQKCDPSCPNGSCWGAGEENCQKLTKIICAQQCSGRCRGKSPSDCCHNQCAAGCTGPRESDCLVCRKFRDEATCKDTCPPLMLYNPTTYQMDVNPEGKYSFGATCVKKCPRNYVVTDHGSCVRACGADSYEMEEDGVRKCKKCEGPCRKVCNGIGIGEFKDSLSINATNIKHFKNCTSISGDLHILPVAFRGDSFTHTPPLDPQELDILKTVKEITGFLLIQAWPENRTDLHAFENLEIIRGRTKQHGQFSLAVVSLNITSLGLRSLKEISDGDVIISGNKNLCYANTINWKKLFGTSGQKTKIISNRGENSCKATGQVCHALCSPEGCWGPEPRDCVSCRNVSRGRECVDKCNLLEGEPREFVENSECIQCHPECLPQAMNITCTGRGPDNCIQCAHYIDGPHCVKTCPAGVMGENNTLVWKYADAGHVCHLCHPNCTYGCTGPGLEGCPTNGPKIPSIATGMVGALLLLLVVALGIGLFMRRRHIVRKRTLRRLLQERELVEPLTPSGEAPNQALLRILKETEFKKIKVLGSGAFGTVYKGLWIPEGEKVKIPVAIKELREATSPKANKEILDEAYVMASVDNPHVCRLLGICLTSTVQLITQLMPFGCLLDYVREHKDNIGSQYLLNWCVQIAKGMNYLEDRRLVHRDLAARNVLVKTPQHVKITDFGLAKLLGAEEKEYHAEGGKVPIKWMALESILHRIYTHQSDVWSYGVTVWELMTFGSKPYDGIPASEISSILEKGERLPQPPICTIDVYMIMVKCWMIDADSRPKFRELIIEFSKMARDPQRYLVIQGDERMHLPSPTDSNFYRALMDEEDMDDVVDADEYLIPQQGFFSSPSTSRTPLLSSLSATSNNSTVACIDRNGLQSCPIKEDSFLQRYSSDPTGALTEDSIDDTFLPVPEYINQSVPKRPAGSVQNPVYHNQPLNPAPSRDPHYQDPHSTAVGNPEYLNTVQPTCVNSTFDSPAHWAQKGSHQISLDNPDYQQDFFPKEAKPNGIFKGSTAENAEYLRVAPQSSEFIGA
- assayMethodText: compounds binding epidermal growth factor receptor – biochemical, small-molecule microarray, 635 nm fluorescence, primary screen (AID 1104);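 further: score merges 667 nm emission intensity with spot signal to noise over triplicate slides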
- conditionDetails: EGFR binding, higher = more signal
Kind request: treat -0.6 as inclusive, so composite z-score at -0.6 or higher is yes, anything lower is no.

molecule: COCCCNC(=O)[C@@]1(C)c2ccccc2C(=O)N(c2ccc(C)cn2)[C@H]1c1ccc(CO)cc1
groupLabel: no
--
molecule: CC1C=C(CCCO)C=C(C(=O)OCCS(C)(=O)=O)C(C(=O)OCCS(C)(=O)=O)=CN1Cc1cccc(OC(F)(F)F)c1 (stereo not drawn)
groupLabel: yes
--
molecule: COc1cc2c(cc1OC)CN(C(=O)[C@@H]1[C@H]3C(=O)O[C@H](c4ccccc4)[C@H](c4ccccc4)N3[C@H](c3ccc(OCCO)cc3)[C@@]13C(=O)Nc1ccc(C#CCCO)cc13)CC2
groupLabel: yes
--
molecule: C=CC[C@@]1(C(=O)NCC(O)CO)N=C(c2ccc(OCCCO)cc2)O[C@@H]1c1ccccc1 (stereo partly drawn)
groupLabel: no
--
molecule: Cc1ccc(F)cc1S(=O)(=O)N[C@@H]1CCN(C(=O)c2ccc(OC(C)C)cc2)C1
groupLabel: yes
--
molecule: Cc1ccc(S[C@]2(C(=O)NCC(C)C)CC(=O)N(C3CCCCC3)[C@@H]2c2ccc(CO)cc2I)cc1
groupLabel: yes
--
molecule: O=C(N1CCOCC1)[C@@]1(CCS(=O)(=O)c2ccccc2)COC(c2ccc(OCCCO)cc2)=N1
groupLabel: no
